Source of measurements: PubChem BioAssay (NCATS)

PROTOCOL_TEXT: MultiTox-Fluor Cytotoxicity Assay - LYMP1-001 - Dead Cells (AID 946);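 also: cells exposed to compound for 16 h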
RUN_CONDITIONS: LYMP1-001 lymphoblastoid cells, dead-cell protease fluorescence; series mostly up to 92.2 µM
Inconclusive results are not listed. Active and inactive are the calls of the source. Calls follow the shape of the dose curve; as a rule, active = well fitted cell-killing curve with a large enough effect; inconclusive = small, poorly fitted or top-dose-only effect, or effect the other way; inactive = flat fitted curve, though single readings scatter.
Choose the fitting class; nothing outside T for active, F for inactive is accepted.

Past entries and their recorded results:
COMPOUND | CATEGORY_LABEL
CCOc1ccc2c(c1)C(C)=CC(C)(C)N2 | F
Nc1ccn([C@H]2CS[C@@H](CO)O2)c(=O)n1 | F
O=C(O)CCC(=O)C(=O)O | F

Task: Please share the test call associated with "O=CCCCC=O" .
Output: F

Task: Next: "CC(C)(C)NC(=O)[C@@H]1C[C@@H]2CCCC[C@@H]2CN1C[C@@H](O)[C@H](Cc1ccccc1)NC(=O)[C@H](CC(N)=O)NC(=O)c1ccc2ccccc2n1"
Output: T

Task: Moving on to "Cc1ccccc1"
Output: F

Task: Would you mind doing "CCCCCCCC(=O)O" as well?
Output: F

Task: Cool, now "CCOC(C)=O"
Output: F

Task: Again, but for CC(O)CO (stereo unspecified)
Output: F

Task: Next up: "CC(C)=O"
Output: F

Task: Another compound to look at: "CCCCC/C=C\C/C=C\CCCCCCCC(=O)O"
Output: F

###

System: CASKI
PROTOCOL_TEXT: Primary qHTS to identify gynecologic anti-cancer compounds using libraries of approved drugs and bioactive compounds (AID 1345084); also: % is scaled to controls: 0 for no effect and ±100 for the full control effect; nearly all actives have a fitted effect of over 55% in size
RUN_CONDITIONS: Gynecologic cancer cell panel viability, ATPlite luminescence, 48 h; series mostly up to 57.5 µM
Records with an inconclusive call do not appear. The source made the active and inactive calls. The call rests on the fitted dose curve; in most records, active means well fitted cell-killing curve with a large enough effect; inconclusive means small, poorly fitted or top-dose-only effect, or effect the other way; inactive means flat fitted curve, though single readings scatter.

COMPOUND | ASSAYED_TARGET | activity change, negative = cytotoxicity
CC(=O)c1c(O)cc2cccc3c2c1CC(C)(O)O3 (stereo not drawn) | CASKI | inactive
C=C1CC2C3(C)C(OC(C)=O)CC(=O)OC(C)(C)C3C(O)C(OC(C)=O)C2(C)C2C(=O)OC(C)C(=O)C12C (stereo not drawn) | CASKI | inactive
CC1(C)CC2C3=CCC4C5(C)CCC(OC6OC(CO)C(O)C(OC7OC(CO)C(O)C(OC8OC(CO)C(O)C(OC9OC(COC%10OC(CO)C(O)C(O)C%10O)C(O)C(O)C9O)C8O)C7O)C6O)C(C)(C)C5CCC4(C)C3(C)CCC2(C(=O)O)CC1O (stereo not drawn) | CASKI | -0.0614% [at 6.55 µM] (inactive)

###

Test system: CP217
PROTOCOL_TEXT: qHTS profiling for inhibitors of Plasmodium falciparum proliferation (AID 504749); also: nearly all actives have a fitted effect of over 60% in size
RUN_CONDITIONS: P. falciparum in erythrocytes, SYBR Green DNA, 72 h; series mostly up to 28.7 µM
Results filed as inconclusive are left out. The source made the active and inactive calls. The call rests on the fitted dose curve; in most records, active means well fitted inhibition curve with a large enough effect; inconclusive means small, poorly fitted or top-dose-only effect; inactive means flat fitted curve, though single readings scatter.
In this exercise, the only acceptable responses are TRUE = active, FALSE = inactive

Study these solved cases before continuing.
COMPOUND | CATEGORY_LABEL
CCOC(=O)C1=CC2(CC)CCCN3CCc4c(n1c1ccccc41)C32 (configuration not stated) | TRUE
CCN(CC)Cc1cc(Nc2ccnc3cc(Cl)ccc23)ccc1O | TRUE
Cc1ccccc1 | FALSE

Shifting focus to the compound that follows.
Task: Tell me the assay call for "CCCCCCCCCCCCCC[n+]1ccc(C)cc1" please.
Output: TRUE
